test system: UEA-1 binding sites on Caco-2 cell membrane preparations; assay: Two tier competition assay: compound incubated alone with membranes, biotinylated UEA-1 added in next step; parameters: species or system human; conditions: Two Tier Assay, 250 μg/ml; library MSI 22
Observable: Av % Inhibition (%)
Only the number, expressed in %, is required.

# count of solved cases: 2
# Compound, Numeric result
records = [
    ("CNC[C@@H](Cc1ccc2ccccc2c1)N(C)C[C@H](Cc1ccc(Cl)cc1)NC(=O)c1cc(O)c(O)c(O)c1 [D-Napala, L-pCl-Phe, Gallic Acid]", 43.3),
    ("CNC[C@@H](Cc1ccc(OC(=O)OCc2ccccc2Br)cc1)N(C)C[C@H](CC1CCCCC1)NC(=O)c1cc(OC)c(OC)c(OC)c1", 58.9),
]

# input for lookup
For CCC[C@H](CNC)N(C)C[C@@H](CC1CCCCC1)NC(=O)c1cc(O)c(O)c(O)c1 [D-Nve, D-chAla, Gallic Acid] the compound record lists Av % Inhibition as 48.5
